Consider the following compounds and their measured viability, T/C readings.
# System: SYO-1 complex spheroid growth, percent test/control
# assaySummary: Anticancer human tumor SYO-1 cell line growth inhibition [Asc];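 further: compound exposure lasted 7 days after spheroids grew 3 days; 100% = DMSO vehicle control viability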
# assaySetup: second compound 3 µM; first compound 0.0316 µM; hits give low values
outcomeMeasure: viability, T/C (%)

[[record]]
compound = "CNC(C)C(=O)NC1CN(S(=O)(=O)c2cccc(S(=O)(=O)N3CCC4CCC(C(=O)NC(c5ccccc5)c5ccccc5)N4C(=O)C(NC(=O)C(C)NC)C3)c2)CCC2CCC(C(=O)NC(c3ccccc3)c3ccccc3)N2C1=O (configuration not stated) + CCN1C(C(=O)NC23CCC(C(=O)O)(CC2)CC3)C(c2cccc(Cl)c2F)C2(C(=O)Nc3cc(Cl)ccc32)C12CCCCC2"
numericreadout = 0.76

[[record]]
compound = "NC1CCC(NC2CC2c2ccccc2)CC1 (configuration not stated) + CCN1C(C(=O)NC23CCC(C(=O)O)(CC2)CC3)C(c2cccc(Cl)c2F)C2(C(=O)Nc3cc(Cl)ccc32)C12CCCCC2"
numericreadout = 1.49


###

# Tested on: SYO-1 complex spheroid growth, percent test/control
# assaySummary: Anticancer human tumor SYO-1 cell line growth inhibition [Asc];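 further: compound exposure lasted 7 days after spheroids grew 3 days; 100% = DMSO vehicle control viability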
# assaySetup: second compound 0.0316 µM; first compound 0.00316 µM; hits give low values
Consider the following molecules and their measured viability, T/C readings.
outcomeMeasure: viability, T/C

[[record]]
molecule = "COc1c(OCCCN2CCOCC2)ccc2c3n(c(=NC(=O)c4cnc(N)nc4)nc12)CCN3 + CNC(C)C(=O)NC1CN(S(=O)(=O)c2cccc(S(=O)(=O)N3CCC4CCC(C(=O)NC(c5ccccc5)c5ccccc5)N4C(=O)C(NC(=O)C(C)NC)C3)c2)CCC2CCC(C(=O)NC(c3ccccc3)c3ccccc3)N2C1=O"
outcomemeasure = "viability, T/C"
result = "113%"

[[record]]
molecule = "COc1c(OCCCN2CCOCC2)ccc2c3n(c(=NC(=O)c4cnc(N)nc4)nc12)CCN3 + Cc1c(S(C)(=O)=O)c(-c2cc(F)cc(N3CCN(c4ccc(NS(=O)(=O)c5ccc(NC(CCN6CCC(C(=O)OCCCP(=O)(O)O)CC6)CSc6ccccc6)c(S(=O)(=O)C(F)(F)F)c5)cc4)CC3)c2)c(-c2ccc(Cl)cc2)n1C(C)C"
outcomemeasure = "viability, T/C"
result = "104%"

[[record]]
molecule = "Cn1ncnc1[C@H]1c2n[nH]c(=O)c3cc(F)cc(c23)N[C@@H]1c1ccc(F)cc1 + Cc1c(S(C)(=O)=O)c(-c2cc(F)cc(N3CCN(c4ccc(NS(=O)(=O)c5ccc(NC(CCN6CCC(C(=O)OCCCP(=O)(O)O)CC6)CSc6ccccc6)c(S(=O)(=O)C(F)(F)F)c5)cc4)CC3)c2)c(-c2ccc(Cl)cc2)n1C(C)C"
outcomemeasure = "viability, T/C"
result = "99.6%"


###

# System: SYO-1 complex spheroid growth, percent test/control
# assaySummary: Anticancer human tumor SYO-1 cell line growth inhibition [Asc];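 further: compound exposure lasted 7 days after spheroids grew 3 days; 100% = DMSO vehicle control viability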
# assaySetup: second compound 0.0949 µM; first compound 1 µM; hits give low values
Consider the following compounds and their measured viability, T/C readings.
outcomeMeasure: viability, T/C (%)

[[record]]
compound = "CCN1CCN(Cc2ccc(Nc3ncc(F)c(-c4cc(F)c5nc(C)n(C(C)C)c5c4)n3)nc2)CC1 + CCN1C(C(=O)NC23CCC(C(=O)O)(CC2)CC3)C(c2cccc(Cl)c2F)C2(C(=O)Nc3cc(Cl)ccc32)C12CCCCC2"
numericreadout = 19.5

[[record]]
compound = "C=CC(=O)N1CCN(c2nc(=O)n(-c3c(C)ccnc3C(C)C)c3nc(-c4c(O)cccc4F)c(F)cc23)C(C)C1 (centres undefined) + CCN1C(C(=O)NC23CCC(C(=O)O)(CC2)CC3)C(c2cccc(Cl)c2F)C2(C(=O)Nc3cc(Cl)ccc32)C12CCCCC2"
numericreadout = 79.4

[[record]]
compound = "COc1c(OCCCN2CCOCC2)ccc2c3n(c(=NC(=O)c4cnc(N)nc4)nc12)CCN3 + CCN1C(C(=O)NC23CCC(C(=O)O)(CC2)CC3)C(c2cccc(Cl)c2F)C2(C(=O)Nc3cc(Cl)ccc32)C12CCCCC2"
numericreadout = 16

[[record]]
compound = "CNC(C)C(=O)NC1CN(S(=O)(=O)c2cccc(S(=O)(=O)N3CCC4CCC(C(=O)NC(c5ccccc5)c5ccccc5)N4C(=O)C(NC(=O)C(C)NC)C3)c2)CCC2CCC(C(=O)NC(c3ccccc3)c3ccccc3)N2C1=O (centres undefined) + CCN1C(C(=O)NC23CCC(C(=O)O)(CC2)CC3)C(c2cccc(Cl)c2F)C2(C(=O)Nc3cc(Cl)ccc32)C12CCCCC2"
numericreadout = 70.6

